Tested on: A549
EXPERIMENT SUMMARY: NCI tumour cell line growth inhibition, 48 h
Active and inactive are the calls of the source. Cut-off read from the data, not from the text of the source: active = GI50 up to about 1.1 µM and inactive = higher.
Possible outcomes: active, inactive

INSERT INTO measurements (compound, assigned_class) VALUES
  ('C/C=C\C(CC(=O)O)CN1CCC2=C(C1)C(S(=O)(=O)C(F)(F)F)c1ccccc12 (centres undefined)', 'inactive'),
  ('CCCCNC(=O)CCN(C(=O)O)S(=O)(=O)c1ccc(NC(=O)c2ccccc2)cc1', 'inactive'),
  ('COC(=O)CCC(NC(=S)N/N=C(\C)c1ccccn1)C(=O)OC (centres undefined)', 'inactive'),
  ('CC(=O)Oc1ccccc1-c1cc2ccccc2oc1=O', 'inactive'),
  ('O=[N+]([O-])c1cccc2nc3ccccc3c(NCCCn3ccnc3[N+](=O)[O-])c12', 'active'),
  ('CCCOc1ccc2sc(NC(=O)c3cc([N+](=O)[O-])cc([N+](=O)[O-])c3)nc2c1', 'inactive'),
  ('Cc1nn(C(=O)Cc2ccccc2)c2c1C(c1ccc(Cl)cc1)SC(=N)N2 (centres undefined)', 'inactive'),
  ('O=C(COc1ccc(OCC(=O)N2C(=O)CS/C2=N\c2ccccc2)cc1)N1C(=O)CS/C1=N\c1ccccc1', 'inactive'),
  ('O=c1[nH]c2ccc(C(F)(F)F)cc2nc1C(F)(F)F', 'inactive'),
  ('CSC(SC)=C1Sc2cccc(Cl)c2S1', 'inactive'),
  ('N=C(N)SCc1ccc(Cl)c2ccccc12.O=[N+]([O-])c1c(O)c(Cl)cc(Cl)c1Cl', 'inactive'),
  ('CC(=O)NCCSC(=O)c1ccccc1', 'active'),
  ('COC(=O)c1c(C)cccc1/C=C1/Cc2c(C)cccc2C1=O', 'inactive'),
  ('CN(C)c1ccc(NN=C2SC(=N\c3ccccc3)/C(=N/c3ccccc3)S2)cc1', 'inactive'),
  ('SC1=NC2=C(CSC/C2=C\c2ccccc2)C(c2ccccc2)N1 (centres undefined)', 'inactive'),
  ('COc1cc2c[n+](C)c3c4ccccc4ccc3c2cc1OC', 'active'),
  ('Cc1cc2c3c([nH]c2c2ccnc(C)c12)CCCC3', 'inactive'),
  ('Cc1cc(CC(O)(C(F)(F)F)C(F)(F)F)cc(CC(O)(C(F)(F)F)C(F)(F)F)n1', 'inactive'),
  ('CCCCCC(=O)N[C@H]1CCc2cc(OC)c(OC)c(OC)c2-c2ccc(SC)c(=O)cc21', 'active');

###

Test system: RXF 393
EXPERIMENT SUMMARY: NCI tumour cell line growth inhibition, 48 h
Calls of active or inactive are those of the source. No stated cut-off is given here; in the data, active = GI50 up to about 1.1 µM and inactive = higher.
Possible outcomes: yes (1) = active, no (0) = inactive

INSERT INTO measurements (compound, measurement_target, assigned_class) VALUES
  ('CN1C(=O)N(C)C2(CCN(CCCCCCF)CC2)C1=O', 'RXF 393', 'no (0)'),
  ('COc1cccc(/C=C2\S/C(=N/Nc3nc(C)c(C)s3)NC2=O)c1O', 'RXF 393', 'no (0)'),
  ('C=CC(C)(C)C(=C)C(=O)N(C)c1ccccc1I', 'RXF 393', 'no (0)'),
  ('COc1cc(/C=C/C(=O)Oc2ccc(NC(C)=O)cc2)ccc1C(=O)O/C=C/c1ccccc1', 'RXF 393', 'no (0)'),
  ('Nc1nc(O)c(Br)c(-c2cccc([N+](=O)[O-])c2)n1', 'RXF 393', 'no (0)'),
  ('C=C(CC)C[C@@H]1C[C@]2(C(=O)OC)c3[nH]c4ccccc4c3CCN2C1=O', 'RXF 393', 'no (0)'),
  ('NC(=O)/C(=N\NC(=O)c1cc2ccccc2cc1O)C1C(=O)N(c2ccccc2)N=C1N (stereo not given)', 'RXF 393', 'no (0)'),
  ('CC(=O)NCCSC(=O)c1ccccc1', 'RXF 393', 'yes (1)'),
  ('CCN(CC)Cc1cc(Nc2c3ccccc3nc3c2[nH]c2ccccc23)cc(CN(CC)CC)c1O', 'RXF 393', 'yes (1)'),
  ('CN(C)CCONC(=O)C12CC3CC(CC(C3)C1)C2', 'RXF 393', 'no (0)');

###

Test system: HL-60
EXPERIMENT SUMMARY: NCI tumour cell line growth inhibition, 48 h
Calls of active or inactive are those of the source. Rule as the data show it: active = GI50 up to about 1.1 µM and inactive = higher.
Measured GI50 by item
ASSAY ENDPOINT: GI50

INSERT INTO assay_data (compound, measured_result) VALUES
  ('CCSc1nc(-c2cccs2)nc2ccc(I)cc12', '> 100 µM (inactive)'),
  ('CSC(SC)=C1Sc2cccc(Cl)c2S1', '18.3 µM (inactive)'),
  ('CCCCN1C(=O)CC2[C@@H]3CCc4cc(OC(C)=O)ccc4C3CC[C@]2(C)C1=O (some centres undefined)', '9.42 µM (inactive)'),
  ('CC(C)(C)NC(=O)C12C3C4C1C1C2C3C41C(=O)NC(C)(C)C (centres undefined)', '> 100 µM (inactive)'),
  ('NC(=O)C1CCCNC1 (centres undefined)', '> 100 µM (inactive)'),
  ('CN1C(=O)N(C)C2(CCN(CCCCCCF)CC2)C1=O', '> 100 µM (inactive)'),
  ('CCOC(=O)NC(=O)c1cn(CCOCCOC(=O)NCCCCCCNC(=O)OCCOCCn2cc(C(=O)NC(=O)OCC)c(=O)[nH]c2=O)c(=O)[nH]c1=O', '> 100 µM (inactive)'),
  ('O=C(Nc1ccc(-c2cn3ccccc3n2)cc1)c1cc(Br)ccc1O', '> 100 µM (inactive)'),
  ('COc1cc(OC)c2c(c1)C(=O)C(CC(C)O)=CC2=O (centres undefined)', '5.47 µM (inactive)'),
  ('CC(=O)N1[C@H](C(=O)O)CS[C@H]1c1ccncc1', '> 100 µM (inactive)'),
  ('COc1ccc(C2=CN3CCC[C@H]3C=C2c2cc(O)c(OC)c(OC)c2)cc1OC', '0.00351 µM (active)'),
  ('C1C[N+]23CCC[N+]2(C1)CCC3 (centres undefined)', '31.1 µM (inactive)'),
  ('O=C1OC2C(O)C(=O)OC2C1O (centres undefined)', '> 100 µM (inactive)'),
  ('C/C1=C\[C@H](C)C[C@H](C)OC(=O)[C@H](C)NC(=O)[C@@H](Cc2ccc(O)c(Br)c2)N(C)C(=O)[C@H](C)NC(=O)[C@@H](C)C1', '0.00447 µM (active)'),
  ('S=P1(c2ccccc2)Nc2ccc(Cl)cc2N1 (centres undefined)', '7.48 µM (inactive)'),
  ('Cc1nc(-c2ccccc2)c(C)n2c1nc1ccccc12', '16.5 µM (inactive)'),
  ('COC(=O)c1cc(C)ccc1C1CN=NC12Cc1cccc(C)c1C2=O (centres undefined)', '12.7 µM (inactive)'),
  ('CC(=O)Oc1ccccc1-c1cc2ccccc2oc1=O', '> 100 µM (inactive)'),
  ('CCOC(=O)NC(Nc1ncccn1)(C(=O)OCC)C(F)(F)F (centres undefined)', '> 100 µM (inactive)'),
  ('COc1ccc(C2OC2C(=O)C23CC4CC(CC(C4)C2)C3)cc1 (centres undefined)', '15.9 µM (inactive)'),
  ('COc1ccc(NS(=O)(=O)c2ccc3ncn(NS(=O)(=O)c4ccc(I)cc4)c(=O)c3c2)cc1', '49.3 µM (inactive)'),
  ('COc1ccc(C[C@H](N)C(=O)N2C[C@H](CO)C[C@H](n3ccc(=O)[nH]c3=O)C2)cc1', '58.3 µM (inactive)'),
  ('Cc1ccc([S@+]([O-])c2occc2C=O)cc1', '1.8 µM (inactive)'),
  ('O=C1/C(=C\c2ccc(O)cc2)CCC/C1=C/c1ccc(Cl)c(Cl)c1', '1.96 µM (inactive)');

###

System: COLO 205
EXPERIMENT SUMMARY: NCI tumour cell line growth inhibition, 48 h
Activity calls are given as the source filed them. Rule as the data show it: active = GI50 up to about 1.1 µM and inactive = higher.
Possible outcomes: Y for active, N for inactive

INSERT INTO assay_data (molecule, assigned_class) VALUES
  ('Cc1ccc2c(O)cc(-c3ccsc3)nc2n1', 'N'),
  ('COc1ccc(N2C(=O)C3c4[nH]c5ccc(Br)cc5c4C4CCC(C(C)(C)C)CC4C3C2=O)cc1 (centres undefined)', 'N'),
  ('C[Si](C)(C)OC1CC(=O)OC1n1cc(F)c(=O)[nH]c1=O (centres undefined)', 'N'),
  ('CN(C)/N=C(/c1nc2ccc([N+](=O)[O-])cc2nc1O)C(O)c1ccco1 (centres undefined)', 'N'),
  ('COc1cc(C(c2cccc3ccccc23)N2C(=O)CCC2C(=O)O)cc(OC)c1OC (centres undefined)', 'N'),
  ('CC(=O)NCCSC(=O)c1ccccc1', 'Y'),
  ('CN(C)Cc1cc(/N=N/c2ccccc2)cc(CN(C)C)c1O', 'N'),
  ('O=C1OC2C(O)C(=O)OC2C1O (centres undefined)', 'N'),
  ('O=C(Nc1cc([N+](=O)[O-])cc([N+](=O)[O-])c1)OC1C2CCC1C1OC1C2 (centres undefined)', 'N'),
  ('O=C(Cl)c1cc([N+](=O)[O-])cc([N+](=O)[O-])c1', 'N'),
  ('Cc1ccc(S(=O)(=O)N/N=C/c2oc(-c3ccncc3)c(-c3ccncc3)c2[N+](=O)[O-])cc1', 'N'),
  ('COc1cc(NCc2ccc3nc(OC)c(OC)nc3c2)cc(OC)c1OC', 'N'),
  ('C#C[C@]1(O)CCC2C3CCc4cc(Oc5nc(F)nc(-c6c7cc8ccccc8cc7c7n6CCS7)n5)ccc4C3CCC21C (some centres undefined)', 'N'),
  ('CN(C)Cc1cc(C(C)(C)C)cc(CN(C)C)c1O', 'N'),
  ('COC(=O)c1ccc(Cl)cc1NC(=O)C1CCCCC1', 'N'),
  ('COc1cccc(NC(=O)CC(=O)N2N=C(N3c4ccccc4Sc4ccccc43)CC2c2ccccc2)c1 (centres undefined)', 'N'),
  ('CCN(CC)c1nc(N(C)C)c2cc(OC)ccc2n1', 'N'),
  ('C/C(=N\Nc1nc2ccccc2[nH]1)c1ncccn1', 'Y'),
  ('CCCC[P+](CCCC)(CCCC)C(C(=O)OC)C(C(=O)OC)=C1SC(C(=O)OC)=C(C(=O)OC)S1 (centres undefined)', 'N');
